test: Antiproliferative activity against human KB-VIN cells over expressing p-gp assessed as reduction in cell viability by SRB assay; type: functional, cell-based; settings: KBVIN
Here, each record is paired with measured IC50 data.
PROPERTY_NAME: IC50

COMPOUND	REPORTED
CC(C)=C[C@H](O)C[C@@H](CO)[C@H]1CC[C@@]2(C)[C@@H]3CC[C@H]4C(C)(C)C(=O)CC[C@@]45C[C@@]35CC[C@]12C (mixture of isomers)	9.9 µM
CC(C)=CCC[C@]1(C)[C@H]2[C@@H]3[C@H](C)CC[C@H]3[C@](C)(O)CC[C@H]21	> 10 µM
CC1(C)C(=O)CC[C@@]2(C)C1CC=C1[C@@H]2CC[C@@]2(C)[C@H](C3CO[C@@H](C(C)(C)O)[C@H](O)C3)CC[C@]12C (stereo partly drawn)	> 10 µM
